Recorded values, source patent US20100056526A1.

# measurement.target: PPARγ (Homo sapiens, UniProt P37231)
# Construct: expressed in transfected cells; host or cells: CHO-K1
# Sequence (P37231 29-505): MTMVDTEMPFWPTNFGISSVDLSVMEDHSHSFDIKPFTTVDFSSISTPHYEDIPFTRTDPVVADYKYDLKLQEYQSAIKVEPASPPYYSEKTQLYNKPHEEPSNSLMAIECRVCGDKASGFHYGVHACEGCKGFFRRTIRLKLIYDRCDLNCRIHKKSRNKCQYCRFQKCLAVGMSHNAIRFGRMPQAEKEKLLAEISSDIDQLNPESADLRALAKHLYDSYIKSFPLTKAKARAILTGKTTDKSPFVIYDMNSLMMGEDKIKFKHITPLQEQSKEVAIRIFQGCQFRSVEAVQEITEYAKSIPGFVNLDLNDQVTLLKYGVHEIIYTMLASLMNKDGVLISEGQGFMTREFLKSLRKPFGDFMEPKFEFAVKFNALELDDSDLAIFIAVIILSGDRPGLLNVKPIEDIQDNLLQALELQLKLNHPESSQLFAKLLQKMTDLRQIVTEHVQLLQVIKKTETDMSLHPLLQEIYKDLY
# Sequence (P19793 whole entry partner): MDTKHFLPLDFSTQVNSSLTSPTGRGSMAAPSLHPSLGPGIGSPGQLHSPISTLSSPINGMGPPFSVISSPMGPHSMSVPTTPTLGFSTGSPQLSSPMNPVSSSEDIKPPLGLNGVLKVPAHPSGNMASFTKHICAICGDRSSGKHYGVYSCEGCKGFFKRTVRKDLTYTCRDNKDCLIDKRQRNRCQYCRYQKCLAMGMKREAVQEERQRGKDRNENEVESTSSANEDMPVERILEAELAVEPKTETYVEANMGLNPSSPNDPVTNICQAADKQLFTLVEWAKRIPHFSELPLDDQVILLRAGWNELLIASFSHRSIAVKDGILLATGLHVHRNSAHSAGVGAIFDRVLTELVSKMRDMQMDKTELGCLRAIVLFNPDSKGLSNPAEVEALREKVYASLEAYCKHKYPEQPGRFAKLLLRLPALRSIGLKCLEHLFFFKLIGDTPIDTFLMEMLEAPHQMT
# test.method.notes: Evaluation of PPARγ activating action (luciferase reporter in PPARγ:RXRα:4ERPP/CHO-K1 cells)
# Format: cell-based
# assay.context: CHO-K1, 24 h; test compound 10^−6 M; luciferase activity relative to control compound X (1 μM) = 100%, non-administration group = 0%; read-out: PPARγ activating action (activation % (10^−6 M))
Please mark label 1 if the recorded activation at 1 µM is equal to or greater than 40%, and label 0 if it falls below.

- compound: "CCCc1nc(CC)n(-c2ccc(OC3CCOC(C)C3)cc2)c(=O)c1Cc1ccc(-c2ccccc2-c2noc(=O)[nH]2)cc1 (centres unmarked)"
  discrete.label: "label 0"
- compound: "CCCCc1nc(C)n(C(C)c2ccccc2)c(=O)c1Cc1ccc(-c2ccccc2-c2noc(=O)[nH]2)cc1 (centres unmarked)"
  discrete.label: "label 1"
- compound: "CCCc1nc(C)n(CC2CCCCO2)c(=O)c1Cc1ccc(-c2ccccc2-c2noc(=O)[nH]2)cc1 (centres unmarked)"
  discrete.label: "label 1"
- compound: "CCCc1nc(C)n(-c2ccc(OC(C)C)cc2)c(=O)c1Cc1ccc(-c2ccccc2-c2noc(=O)[nH]2)c(OC)c1"
  discrete.label: "label 0"
- compound: "CCCc1nc(C)n(-c2ccc3c(c2)CC(C)O3)c(=O)c1Cc1ccc(-c2ccccc2-c2noc(=O)[nH]2)cc1 (centres unmarked)"
  discrete.label: "label 0"
- compound: "CCCc1nc(CC)n(-c2ccc(OC(C)C)nc2)c(=O)c1Cc1ccc(-c2ccccc2-c2noc(=O)[nH]2)cc1"
  discrete.label: "label 1"
- compound: "CCCc1nc(C)c(-c2ccc(OC(C)C)nc2)c(=O)n1Cc1ccc(-c2ccccc2-c2noc(=O)[nH]2)cc1F"
  discrete.label: "label 0"
- compound: "CCCc1nc(CC)n(-c2cccc(C(C)(C)O)c2)c(=O)c1Cc1ccc(-c2ccccc2-c2noc(=O)[nH]2)cc1"
  discrete.label: "label 0"
- compound: "CCCCc1nc(C)n(Cc2nc3ccccc3s2)c(=O)c1Cc1ccc(-c2ccccc2-c2noc(=O)[nH]2)cc1"
  discrete.label: "label 1"
- compound: "CCCCc1nc(C)c(C(=O)c2ccccc2)c(=O)n1Cc1ccc(-c2ccccc2-c2noc(=O)[nH]2)cc1"
  discrete.label: "label 0"
- compound: "CCCc1nc(C)n(-c2ccc3c(c2)CC(C)(C)O3)c(=O)c1Cc1ccc(-c2ccccc2-c2noc(=O)[nH]2)cc1"
  discrete.label: "label 0"
- compound: "CCCc1nc(CC)c(-c2ccc(OC(C)C)cc2F)c(=O)n1Cc1ccc(-c2ccccc2-c2noc(O)n2)cc1"
  discrete.label: "label 0"
- compound: "CCCc1nc(C)c(-c2ccc(OC(C)C)cc2)c(=O)n1Cc1ccc(-c2ccccc2-c2noc(O)n2)cc1"
  discrete.label: "label 0"
- compound: "CCCc1nc(CC)n(-c2ccc(OC(C)(C)C(C)=O)cc2)c(=O)c1Cc1ccc(-c2ccccc2-c2noc(=O)[nH]2)cc1"
  discrete.label: "label 1"

====

# measurement.target: human AT1 receptor (Homo sapiens)
# Construct: expressed in transfected cells; host or cells: CHO-K1
# Sequence (P30556 1-359): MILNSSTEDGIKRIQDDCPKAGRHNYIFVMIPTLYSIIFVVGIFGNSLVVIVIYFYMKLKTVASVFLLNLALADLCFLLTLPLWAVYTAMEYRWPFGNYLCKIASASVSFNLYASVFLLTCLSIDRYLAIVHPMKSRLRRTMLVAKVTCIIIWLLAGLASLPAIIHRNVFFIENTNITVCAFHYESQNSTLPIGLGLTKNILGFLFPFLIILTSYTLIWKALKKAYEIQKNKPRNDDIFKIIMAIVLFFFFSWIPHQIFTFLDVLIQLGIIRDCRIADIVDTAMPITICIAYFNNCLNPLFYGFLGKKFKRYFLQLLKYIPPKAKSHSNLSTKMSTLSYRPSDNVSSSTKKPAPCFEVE
# test.method.notes: Binding assay using human AT1 receptor-expressing CHO-K1 cell membrane fraction ([125I]-angiotensin II)
# assay.context: 22.5 pM [125I]-angiotensin II, 9 μg AT1 membrane, 1 hr room temperature; read-out: AT1 receptor binding inhibitory action (IC50 (nM))
Where a name gives a salt, the structure may show the parent alone.
Simple rule here: IC50 less than 2 nM is yes (1), otherwise no (0).

- molecule: "CCCc1nc(CC)c(-c2ccc(OC(F)(F)F)cc2)c(=O)n1Cc1ccc(-c2ccccc2-c2noc(O)n2)cc1"
  discrete.label: "no (0)"
- molecule: "CCCc1nc(CC)n(-c2ccc(OC3CCCC3=O)cc2)c(=O)c1Cc1ccc(-c2ccccc2-c2noc(=O)[nH]2)cc1 (centres unmarked)"
  discrete.label: "yes (1)"
- molecule: "CCCCc1nc(CF)n(Cc2ccccc2)c(=O)c1Cc1ccc(-c2ccccc2-c2noc(=O)[nH]2)cc1"
  discrete.label: "yes (1)"
- molecule: "CCCc1nc(CC)n(-c2ccc(OC)cc2)c(=O)c1Cc1ccc(-c2ccccc2-c2noc(O)n2)cc1 [Example 313, potassium salt]"
  discrete.label: "yes (1)"
- molecule: "CCCCc1nc(C)n(Cc2ccccn2)c(=O)c1Cc1ccc(-c2ccccc2-c2noc(=O)[nH]2)cc1"
  discrete.label: "yes (1)"
- molecule: "CCCc1nc(CC)n(-c2ccc(OC3CCOC(C)(C)C3)cc2)c(=O)c1Cc1ccc(-c2ccccc2-c2noc(=O)[nH]2)cc1 (centres unmarked)"
  discrete.label: "yes (1)"
- molecule: "CCCc1nc(CC)c(Oc2ccc(CC)cc2)c(=O)n1Cc1ccc(-c2ccccc2-c2noc(O)n2)cc1"
  discrete.label: "no (0)"
- molecule: "CCCc1nc(CC)n(-c2ccc(OC3(CO)CCC3)cc2)c(=O)c1Cc1ccc(-c2ccccc2-c2noc(=O)[nH]2)cc1"
  discrete.label: "yes (1)"
- molecule: "CCCc1nc(C)n(-c2ccc(OC(C)(C)C(C)=O)cc2)c(=O)c1Cc1ccc(-c2ccccc2-c2noc(=O)[nH]2)cc1"
  discrete.label: "yes (1)"
- molecule: "CCCc1nc(C)n(-c2ccc3c(c2)CC(C)(C)O3)c(=O)c1Cc1ccc(-c2ccccc2-c2noc(O)n2)c(F)c1"
  discrete.label: "yes (1)"
- molecule: "CCCc1nc(CC)n(-c2ccc(OC(C)C)c(F)c2)c(=O)c1Cc1ccc(-c2ccccc2-c2noc(=O)[nH]2)cc1"
  discrete.label: "no (0)"
- molecule: "CCCc1nc(C)n(-c2ccc(OC3CCC3)cc2)c(=O)c1Cc1ccc(-c2ccccc2-c2noc(=O)[nH]2)cc1"
  discrete.label: "yes (1)"
- molecule: "CCCCc1nc(C2CC2)n(-c2ccc3c(c2)CCO3)c(=O)c1Cc1ccc(-c2ccccc2-c2noc(=O)[nH]2)cc1"
  discrete.label: "yes (1)"
- molecule: "CCCc1nc(CC)c(-c2ccc(OC(C)C)nc2)c(=O)n1Cc1ccc(-c2ccccc2-c2noc(=O)[nH]2)cc1"
  discrete.label: "no (0)"
